methodNotes: Pharmacokinetic profile in rats (blood 15N-nitrite levels)
Type: in vivo, rat
statedConditions: cannulated SD rats, blood, oral 30 mg/kg; read-out: 15N-nitrite Cmax
recordedEndpoint: Cmax (µM)
Give the quantity in µM, number only.

Incoming: # get_value(readout='Cmax', item= COC1=C(OC)C(=O)C(CCCOCCO[N+](=O)[O-])=C(C)C1=O [^15N-Compound (20)] )
Outgoing: 3.58

###

methodNotes: Pharmacokinetic profile in rats (blood 15N-nitrite levels)
Assay type: in vivo, rat
statedConditions: rat, in vivo, po, 30 mg/kg
Mark yes (1) only for Cmax values smaller than 2000 nM; exact matches and larger values are no (0).

Examples from the recorded data:
[[record]]
molecule = "CC1=C(C)C(=O)C(CCCCO[N+](=O)[O-])=C(C)C1=O [^15N-Compound (3)]"
grouplabel = "no (0)"

[[record]]
molecule = "CC1=C(C)C(=O)C(CCCCCCCCCCO[N+](=O)[O-])=C(C)C1=O [^15N-Compound (5)]"
grouplabel = "yes (1)"

[[record]]
molecule = "COC1=C(C)C(=O)C(CCCCCCO[N+](=O)[O-])=C(C)C1=O [^15N-Compound (29)]"
grouplabel = "no (0)"


Incoming: Hello, is Cmax of the following molecule strictly smaller than 2000 nM? CC1=C(C)C(=O)C(CCCCCCCCO[N+](=O)[O-])=C(C)C1=O [^15N-Compound (34)]
Outgoing: no (0)

Incoming: Criterion: Cmax strictly below 2000 nM. Is it met by COC1=C(OC)C(=O)C(CCCCCCO[N+](=O)[O-])=C(C)C1=O [^15N-Compound (16)] ?
Outgoing: no (0)

Incoming: Confirm or reject: Cmax of O=[N+]([O-])O[C@@H]1CO[C@H]2[C@@H]1OC[C@@H]2O [5-ISM^15N, reference compound] lies strictly below 2000 nM
Outgoing: no (0)

Incoming: I wonder whether CC1=C(C)C(=O)C(CCCCCCO[N+](=O)[O-])=C(C)C1=O [^15N-Compound (15)] has Cmax below 2000 nM. Can you tell?
Outgoing: no (0)

Incoming: Determine whether this molecule shows Cmax lower than 2000 nM (ties excluded): CC1=C(C)C(=O)C(CCCCCO[N+](=O)[O-])=C(C)C1=O [^15N-Compound (1)]
Outgoing: no (0)

###

methodNotes: Pharmacokinetic profile in rats (blood 15N-nitrite levels)
Format: in vivo, rat
statedConditions: rat, in vivo, po, 30 mg/kg
Recorded 15N-nitrite Tmax values for a group of molecules are listed next.
In your response, put the unit directly after the numeric value.

[[record]]
molecule = "CC1=C(C)C(=O)C(CCCCCCCCO[15N+](=O)[O-])=C(C)C1=O [^15N-Compound (34)]"
valuereported = "3 h"

[[record]]
molecule = "COC1=C(OC)C(=O)C(CCCOCCCO[15N+](=O)[O-])=C(C)C1=O [^15N-Compound (14)]"
valuereported = "1 h"

[[record]]
molecule = "COC1=C(OC)C(=O)C(CCCCO[N+](=O)[O-])=C(C)C1=O [^15N-Compound (4)]"
valuereported = "0.25 h"

[[record]]
molecule = "COC1=C(C)C(=O)C(CCCCCCCCO[N+](=O)[O-])=C(C)C1=O [^15N-Compound (32)]"
valuereported = "3 h"

[[record]]
molecule = "CC1=C(C)C(=O)C(CCCCCO[N+](=O)[O-])=C(C)C1=O [^15N-Compound (1)]"
valuereported = "1 h"

[[record]]
molecule = "COC1=C(C)C(=O)C(CCCCCCO[N+](=O)[O-])=C(C)C1=O [^15N-Compound (29)]"
valuereported = "1 h"

[[record]]
molecule = "CC1=C(C)C(=O)C(CCCCCCO[15N+](=O)[O-])=C(C)C1=O [^15N-Compound (15)]"
valuereported = "3 h"

[[record]]
molecule = "O=[N+]([O-])O[C@@H]1CO[C@H]2[C@@H]1OC[C@@H]2O [5-ISM^15N, reference compound]"
valuereported = "1 h"

[[record]]
molecule = "COC1=C(OC)C(=O)C(CCCCCCCCCCO[15N+](=O)[O-])=C(C)C1=O [^15N-Compound (6)]"
valuereported = "3 h"

[[record]]
molecule = "COC1=C(OC)C(=O)C(CCCCCCO[N+](=O)[O-])=C(C)C1=O [^15N-Compound (16)]"
valuereported = "3 h"


Incoming: For the molecule shown here, COC1=C(OC)C(=O)C(CCCCCCCCCC(CO[N+](=O)[O-])O[N+](=O)[O-])=C(C)C1=O (centres unmarked) [^15N-Compound (17)] , give the reported 15N-nitrite Tmax.
Outgoing: 3 h

Incoming: Need 15N-nitrite Tmax of CC1=C(CCCCCCO[15N+](=O)[O-])C(=O)c2ccccc2C1=O [^15N-Compound (23)] , thanks.
Outgoing: 3 h

Incoming: I would be grateful if you could share the reported 15N-nitrite Tmax for COC1=C(OC)C(=O)C(CCCCCO[15N+](=O)[O-])=C(C)C1=O [^15N-Compound (2)] .
Outgoing: 1 h
